pIC50 listing for selected molecules.
# ASSAY_SYSTEM: Delta-type opioid receptor (Rattus norvegicus)
# Sequence (P33533 whole entry): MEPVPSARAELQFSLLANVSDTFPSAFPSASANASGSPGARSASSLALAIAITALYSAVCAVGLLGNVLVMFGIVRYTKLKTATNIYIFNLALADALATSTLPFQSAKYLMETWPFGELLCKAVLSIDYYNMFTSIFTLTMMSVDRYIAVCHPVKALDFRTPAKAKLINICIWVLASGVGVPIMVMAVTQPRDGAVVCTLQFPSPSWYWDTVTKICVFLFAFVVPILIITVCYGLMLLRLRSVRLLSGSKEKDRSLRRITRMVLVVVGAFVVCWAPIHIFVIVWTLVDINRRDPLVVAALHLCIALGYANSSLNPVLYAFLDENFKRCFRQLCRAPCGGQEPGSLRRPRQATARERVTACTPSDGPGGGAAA
# TEST: Displacement of [3H]DSLET from delta opioid receptor in rat brain by liquid scintillation counting
# Type: tissue-based
pIC50: −log10 of the molar value.

Known results for molecules:
{"columns": ["MOLECULE", "pIC50"],
 "data": [
  ["CCC[C@H](CN[C@H](CNC)Cc1ccc(O)cc1)NCCC1CC2CCC1C2 (stereo not given in full)", 5.68],
  ["CCC[C@H](CNC)NC[C@H](Cc1ccc(O)cc1)NCCC1CCCC1", "< 5.00"],
  ["CCCC[C@H](CNCc1ccccc1)N1CCN(CC2CCCCCC2)[C@H](Cc2ccc(O)cc2)C1", "< 5.00"]
]}

Find the recorded pIC50 belonging to `CNC[C@@H](Cc1ccc(O)cc1)N1CCN(CCCC(C)C)CC1` and report it.
< 5.00

Look up pIC50 for this molecule: CCC[C@H](CNC)NC[C@@H](CCC)NCC1CCC(C)CC1 (stereo not given in full)
< 5.00

Data request, read-out pIC50, for `CC(C)[C@@H]1CN([C@@H](CNCc2ccccc2)C(C)C)CCN1CCC1CCCC1`
< 5.00

Which pIC50 reading was recorded for the molecule `CC(C)(C)CCN1CCN([C@@H](CNCc2ccccc2)Cc2ccc(O)cc2)C[C@@H]1Cc1ccc(O)cc1` ?
5.34

Which value of pIC50 has been reported for `CNC[C@@H](Cc1ccc(O)cc1)N1CCN(CCc2cccc(C)c2)[C@@H](C(C)C)C1` in the records?
< 5.00

Which pIC50 is reported for this molecule? CNC[C@H](Cc1ccc(O)cc1)N1CCN(CCC2CC3CCC2C3)CC1 (stereo not given in full)
5.71

Which pIC50 value belongs to CNC[C@H](Cc1ccc(O)cc1)N1CCN(CCC2CC3CCC2C3)[C@@H](C(C)C)C1 (stereo not given in full) ?
< 5.00

---

Observed IC50, system Mu-type opioid receptor (Rattus norvegicus).
Field format: number, assumed nM, no unit text.

Recorded IC50, per entry:
{"columns": ["COMPOUND", "ASSAY_SYSTEM", "OBSERVED"],
 "data": [
  ["CNC[C@@H](Cc1ccc(O)cc1)N1CCN(CC2CCCCCC2)CC1", "Mu-type opioid receptor (Rattus norvegicus)", 90],
  ["CNC[C@H](Cc1ccc(O)cc1)N1CCN(CCC2CC3CCC2C3)CC1 (stereo not given in full)", "Mu-type opioid receptor (Rattus norvegicus)", 167]
]}

Here's the next entry for you.
Item under review: CCC[C@H](CNC)NC[C@H](Cc1ccc(O)cc1)NCC1CCC(C)CC1 (stereo not given in full) . Reported IC50?
225

---

Notes on IC50 obtained with Mu-type opioid receptor (Rattus norvegicus, UniProt P33535).
Sequence (P33535 whole entry): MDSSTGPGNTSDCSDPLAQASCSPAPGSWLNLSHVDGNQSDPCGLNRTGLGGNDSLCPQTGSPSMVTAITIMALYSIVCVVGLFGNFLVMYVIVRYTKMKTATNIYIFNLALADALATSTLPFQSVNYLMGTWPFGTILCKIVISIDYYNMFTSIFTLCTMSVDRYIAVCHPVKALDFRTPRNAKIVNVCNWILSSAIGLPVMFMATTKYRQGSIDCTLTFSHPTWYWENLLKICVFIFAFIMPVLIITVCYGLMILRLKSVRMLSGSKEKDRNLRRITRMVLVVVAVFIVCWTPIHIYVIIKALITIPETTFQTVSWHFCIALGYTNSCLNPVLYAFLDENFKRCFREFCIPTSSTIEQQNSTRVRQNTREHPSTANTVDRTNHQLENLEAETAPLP
Field: numeric (nM). Do not append units.

Form field - read-out: IC50; system: Mu-type opioid receptor (Rattus norvegicus, UniProt P33535); submitted item: `CNC[C@@H](Cc1ccc(O)cc1)N1CCN(CCCC2CCCCC2)[C@H](C(C)C)C1`
920

Form field - read-out: IC50; system: Mu-type opioid receptor (Rattus norvegicus, UniProt P33535); submitted item: `CNC[C@H](Cc1ccc(O)cc1)N1CCN(CC2CCCCCC2)CC1`
152

Param readout= IC50; system= Mu-type opioid receptor (Rattus norvegicus, UniProt P33535); entry= CNC[C@@H](Cc1ccc(O)cc1)N1CCN(CCC2CC3CCC2C3)CC1 (some centres not stated) ; returns value.
92

Param readout= IC50; system= Mu-type opioid receptor (Rattus norvegicus, UniProt P33535); entry= CNC[C@H](Cc1ccc(O)cc1)N1CCN(CCC2CC3CCC2C3)[C@@H](C(C)C)C1 (some centres not stated) ; returns value.
223
